B1: glmS ribozyme (parent)
chain: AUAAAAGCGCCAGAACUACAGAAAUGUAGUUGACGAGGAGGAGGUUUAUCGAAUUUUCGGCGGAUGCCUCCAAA

Variants of: B1
Assay: self-cleavage kobs at 2500 uM GlcN6P; higher = faster cleavage; RNA array
Settings: with glucosamine-6-phosphate
This sample holds only a part of the variants without activity.
outcome_measure: self-cleavage kobs at 2500 uM GlcN6P

Examples with their reported self-cleavage kobs at 2500 uM GlcN6P follow.
{"columns": ["variant_description", "self-cleavage kobs at 2500 uM GlcN6P"],
 "data": [
  ["G37C A52G U56G", "< 1e-05 s⁻¹"],
  ["A12C A23C U54G C70A", "0.000103 s⁻¹"]
]}

get_value(item= C8G G40U , readout=self-cleavage kobs at 2500 uM GlcN6P) returns < 1e-05 s⁻¹

get_value(item= A36G G41A C61G C71U , readout=self-cleavage kobs at 2500 uM GlcN6P) returns < 1e-05 s⁻¹

get_value(item= A42C A53C U55C , readout=self-cleavage kobs at 2500 uM GlcN6P) returns < 1e-05 s⁻¹

get_value(item= A6U A33U A64G , readout=self-cleavage kobs at 2500 uM GlcN6P) returns < 1e-05 s⁻¹

get_value(item= G40U A48G G59U , readout=self-cleavage kobs at 2500 uM GlcN6P) returns < 1e-05 s⁻¹

get_value(item= G32A U54A C70G , readout=self-cleavage kobs at 2500 uM GlcN6P) returns 0.000378 s⁻¹

get_value(item= U47G U56C A64G , readout=self-cleavage kobs at 2500 uM GlcN6P) returns 7.42e-05 s⁻¹

get_value(item= C11A A14C , readout=self-cleavage kobs at 2500 uM GlcN6P) returns 3.05e-05 s⁻¹

get_value(item= A48G A52U G59U , readout=self-cleavage kobs at 2500 uM GlcN6P) returns < 1e-05 s⁻¹
